# Assay Text: Pharmacokinetic study in cynomolgus monkeys after oral (nasogastric) gavage, sublingual and intravenous administration
# Format: in vivo
# Stated Conditions: both sexes, cynomolgus monkey, plasma, oral, 30 mg/kg, Plasma Bumetanide Dibenzylamide concentration, Mean, monkey, NG 30 mg/kg, First Formulation (Form 1), 4.00 h, N=4
Reported Metric: concentration at 4 h (ng/mL)
Supply the numeric figure in ng/mL, leaving out any unit text.

Looking up CCCCNc1cc(C(=O)N(Cc2ccccc2)Cc2ccccc2)cc(S(N)(=O)=O)c1Oc1ccccc1 [Bumetanide Dibenzylamide] , I found its concentration at 4 h recorded as 66.8

* * *

# Assay Text: Pharmacokinetic study in cynomolgus monkeys after oral (nasogastric) gavage, sublingual and intravenous administration
# Assay type: in vivo
# Stated Conditions: cynomolgus monkey, plasma, other: sublingual, 5 mg/kg, Plasma Bumetanide Dibenzylamide concentration, Median, monkey, SL, dose column 5 mg/kg (title 30 mg/kg), Fourth Formulation (Form 2), 8.0 h, N=4
# Experimental: A pharmacokinetic study was done in cynomolgus monkeys following single oral (nasogastric) gavage, sublingual, and intravenous administration. […] Calibration curves, blanks, and analytical QCs were prepared in monkey plasma (K2EDTA). The extracts were evaporated to dryness, reconstituted, and then analyzed by LC-MS/MS. The calibration range was 0.250-250 ng/mL for both analytes. If the criteria for either the calibration curve or the analytical QCs were not met, the analytical run was rejected. […]
Reported Metric: concentration at 8 h
Please report the result as a number followed by the unit.

Looking up CCCCNc1cc(C(=O)N(Cc2ccccc2)Cc2ccccc2)cc(S(N)(=O)=O)c1Oc1ccccc1 [Bumetanide Dibenzylamide] , I found its concentration at 8 h recorded as 0.505 ng/mL

src = patent US20250120932A1
